This collection of values is drawn from PubChem BioAssay AID2060486.

system: IGROV1 complex spheroids (HUVEC, MSC), viability % test/control; test: Anticancer human tumor IGROV1 cell line growth inhibition [GQUAD]; details: second compound 10 µM; first compound 0.1 µM; active compounds read low;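 also: spheroids exposed to compounds for 7 days before readout; 100% = DMSO vehicle control viability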
viability, T/C overview

>  <MOLECULE>
C=CC(=O)N1CCN(c2nc(=O)n(-c3c(C)ccnc3C(C)C)c3nc(-c4c(O)cccc4F)c(F)cc23)C(C)C1 (stereo not given) + CN(C)c1ccc(Nc2c3ccc(NC(=O)CCN4CCCC4)cc3nc3cc(NC(=O)CCN4CCCC4)ccc23)cc1

>  <viability, T/C, %>
58.7

$$$$
>  <MOLECULE>
COc1cc(C2c3cc4c(cc3C(OC3OC5COC(C)OC5C(O)C3O)C3COC(=O)C23)OCO4)cc(OC)c1O (stereo not given) + CN(C)c1ccc(Nc2c3ccc(NC(=O)CCN4CCCC4)cc3nc3cc(NC(=O)CCN4CCCC4)ccc23)cc1

>  <viability, T/C, %>
22.1

$$$$
>  <MOLECULE>
CC1COCCN1c1cc(C2(S(C)(=N)=O)CC2)nc(-c2ccnc3[nH]ccc23)n1 (stereo not given) + Cc1[nH]c2ccc(F)cc2c1-c1nc2c3cccnc3c3ncccc3c2[nH]1

>  <viability, T/C, %>
4.76

$$$$
>  <MOLECULE>
C#Cc1c(F)ccc2cc(O)cc(-c3ncc4c(N5CC6CCC(C5)N6)nc(OCC56CCCN5CC(F)C6)nc4c3F)c12 (stereo not given) + Cc1cnc(CNC(=O)c2c(=O)c3ccc(N4CCCN(C)CC4)nc3n3c2sc2ccccc23)cn1

>  <viability, T/C, %>
7.39

$$$$
>  <MOLECULE>
Nc1ccn(C2OC(CO)C(O)C2(F)F)c(=O)n1 (stereo not given) + Cc1cnc(CNC(=O)c2c(=O)c3ccc(N4CCCN(C)CC4)nc3n3c2sc2ccccc23)cn1

>  <viability, T/C, %>
6.38

$$$$
>  <MOLECULE>
CC1COCCN1c1cc(-c2ccnn2C)c2ccnc(-c3ccn[nH]3)c2n1 (stereo not given) + CN(C)c1ccc(Nc2c3ccc(NC(=O)CCN4CCCC4)cc3nc3cc(NC(=O)CCN4CCCC4)ccc23)cc1

>  <viability, T/C, %>
10.5

$$$$
>  <MOLECULE>
COc1cc(C2c3cc4c(cc3C(OC3OC5COC(C)OC5C(O)C3O)C3COC(=O)C23)OCO4)cc(OC)c1O (stereo not given) + Cc1cnc(CNC(=O)c2c(=O)c3ccc(N4CCCN(C)CC4)nc3n3c2sc2ccccc23)cn1

>  <viability, T/C, %>
11

$$$$
>  <MOLECULE>
COc1ccc([C@@H](O)c2cc(-c3ncnc4cc(N5CCOCC5)ccc34)c(F)cc2Cl)nn1 + Cc1[nH]c2ccc(F)cc2c1-c1nc2c3cccnc3c3ncccc3c2[nH]1

>  <viability, T/C, %>
3.5

$$$$
>  <MOLECULE>
CC(C)n1c(=O)n(C)c2cnc3cc(F)c(-c4ccc(OCCCN5CCCCC5)nc4)cc3c21 + Cc1cnc(CNC(=O)c2c(=O)c3ccc(N4CCCN(C)CC4)nc3n3c2sc2ccccc23)cn1

>  <viability, T/C, %>
7.9

$$$$
>  <MOLECULE>
CC1COCCN1c1cc(C2(S(C)(=N)=O)CC2)nc(-c2ccnc3[nH]ccc23)n1 (stereo not given) + CN(C)c1ccc(Nc2c3ccc(NC(=O)CCN4CCCC4)cc3nc3cc(NC(=O)CCN4CCCC4)ccc23)cc1

>  <viability, T/C, %>
54.4

$$$$
